A collection of compounds and their measured DC50
Target: GSPT1 (Homo sapiens, UniProt P15170+Q96SW2)
Sequence (P15170 whole entry): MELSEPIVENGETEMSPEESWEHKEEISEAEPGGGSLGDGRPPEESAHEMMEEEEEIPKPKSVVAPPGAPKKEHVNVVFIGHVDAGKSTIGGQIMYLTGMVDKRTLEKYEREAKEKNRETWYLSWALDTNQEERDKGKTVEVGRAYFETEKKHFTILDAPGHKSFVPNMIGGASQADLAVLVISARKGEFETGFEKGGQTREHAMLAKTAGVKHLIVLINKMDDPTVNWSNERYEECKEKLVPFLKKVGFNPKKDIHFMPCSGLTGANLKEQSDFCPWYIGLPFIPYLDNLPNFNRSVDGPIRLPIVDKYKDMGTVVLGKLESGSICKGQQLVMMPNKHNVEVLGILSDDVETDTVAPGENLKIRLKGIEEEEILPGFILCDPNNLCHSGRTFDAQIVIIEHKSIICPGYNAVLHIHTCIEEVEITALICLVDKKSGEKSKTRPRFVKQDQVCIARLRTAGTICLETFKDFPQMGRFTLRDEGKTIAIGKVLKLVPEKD
Sequence (Q96SW2 whole entry): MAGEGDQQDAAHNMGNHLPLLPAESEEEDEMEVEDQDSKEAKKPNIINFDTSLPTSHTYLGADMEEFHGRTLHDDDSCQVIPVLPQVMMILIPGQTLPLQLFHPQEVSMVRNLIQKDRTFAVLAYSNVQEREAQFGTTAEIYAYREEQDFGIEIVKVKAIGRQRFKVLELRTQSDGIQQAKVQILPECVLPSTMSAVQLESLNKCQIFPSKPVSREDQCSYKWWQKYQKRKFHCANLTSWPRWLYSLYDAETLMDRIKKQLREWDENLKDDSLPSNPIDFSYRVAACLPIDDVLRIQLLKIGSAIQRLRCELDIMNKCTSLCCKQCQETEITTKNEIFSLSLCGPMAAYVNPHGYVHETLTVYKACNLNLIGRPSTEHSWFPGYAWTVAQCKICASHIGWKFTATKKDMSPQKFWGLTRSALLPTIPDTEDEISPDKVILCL
Sequence (Q16531 whole entry partner): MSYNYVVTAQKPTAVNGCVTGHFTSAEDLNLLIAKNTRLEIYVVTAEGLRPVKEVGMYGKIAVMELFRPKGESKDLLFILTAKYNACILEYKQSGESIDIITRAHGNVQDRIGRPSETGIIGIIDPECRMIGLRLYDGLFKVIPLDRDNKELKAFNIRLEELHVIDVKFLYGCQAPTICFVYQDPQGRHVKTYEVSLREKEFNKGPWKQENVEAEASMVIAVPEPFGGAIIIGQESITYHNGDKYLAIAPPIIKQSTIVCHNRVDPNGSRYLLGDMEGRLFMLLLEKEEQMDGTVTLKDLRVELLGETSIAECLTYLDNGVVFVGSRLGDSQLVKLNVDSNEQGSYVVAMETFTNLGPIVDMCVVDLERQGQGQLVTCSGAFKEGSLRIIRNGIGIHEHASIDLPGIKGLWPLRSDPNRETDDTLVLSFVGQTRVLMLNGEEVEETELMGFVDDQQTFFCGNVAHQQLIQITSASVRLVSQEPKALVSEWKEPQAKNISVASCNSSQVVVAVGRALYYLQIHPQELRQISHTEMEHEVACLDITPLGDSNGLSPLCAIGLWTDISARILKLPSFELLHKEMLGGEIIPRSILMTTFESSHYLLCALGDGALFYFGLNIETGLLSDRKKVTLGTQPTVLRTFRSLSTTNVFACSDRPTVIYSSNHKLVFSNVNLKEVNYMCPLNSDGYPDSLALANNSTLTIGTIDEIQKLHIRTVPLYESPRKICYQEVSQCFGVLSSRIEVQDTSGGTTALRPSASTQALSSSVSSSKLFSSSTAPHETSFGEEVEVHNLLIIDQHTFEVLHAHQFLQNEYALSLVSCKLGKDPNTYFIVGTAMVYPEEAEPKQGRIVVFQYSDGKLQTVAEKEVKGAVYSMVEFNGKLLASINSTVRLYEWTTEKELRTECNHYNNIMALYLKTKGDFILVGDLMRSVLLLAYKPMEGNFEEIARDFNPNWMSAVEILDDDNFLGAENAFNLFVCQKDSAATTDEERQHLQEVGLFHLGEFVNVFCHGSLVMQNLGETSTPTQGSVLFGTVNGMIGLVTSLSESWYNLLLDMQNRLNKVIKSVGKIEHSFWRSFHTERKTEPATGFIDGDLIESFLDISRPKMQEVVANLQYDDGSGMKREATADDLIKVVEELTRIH
Experiment: HiBiT degradation assay, GSPT1, Procedure B (Molt 4_hGSPT1_HiBIT cells)
Type: cell-based
Parameters: Molt 4_hGSPT1_HiBIT N-terminus tagged cells were generated using CRISPR technology; endogenous in cells; host or cells: Molt 4 cells, CRISPR-edited
Settings: six hours

compound: Cn1cc(-c2ccc3c(c2)CN(C2CCC(=O)NC2=O)C3=O)nc1-c1cccc2cnccc12 (stereo not shown)
testTarget: GSPT1 (Homo sapiens, UniProt P15170+Q96SW2)
DC50: < 0.025 µM
//
compound: Cn1ncc(-c2ccc3c(c2)CN(C2CCC(=O)NC2=O)C3=O)c1C1=CCN(CC(F)(F)F)CC1 (stereo not shown)
testTarget: GSPT1 (Homo sapiens, UniProt P15170+Q96SW2)
DC50: ≥ 0.025 µM
//
compound: Cn1ncc(-c2ccc3c(c2)CN(C2CCC(=O)NC2=O)C3=O)c1C1=CCCC1 (stereo not shown)
testTarget: GSPT1 (Homo sapiens, UniProt P15170+Q96SW2)
DC50: ≥ 0.025 µM
//
compound: CCCCc1ccc(-c2nc(-c3ccc4c(c3)CN(C3CCC(=O)NC3=O)C4=O)cn2C)s1 (stereo not shown)
testTarget: GSPT1 (Homo sapiens, UniProt P15170+Q96SW2)
DC50: < 0.025 µM

----------
A collection of compounds and their measured DC50
Target: GSPT1 (Homo sapiens, UniProt P15170+Q96SW2)
Test: HiBiT degradation assay, GSPT1, Procedure A
Assay type: cell-based
Set-up: HiBit-GSPT1 KI HEK293(LgBit) Cells; host or cells: HEK293(LgBit) knock-in cells
Details: six hours incubation
assayEndpoint: DC50

compound: Cn1cnc(-c2ccc3c(c2)CN(C2CCC(=O)NC2=O)C3=O)c1-c1ccccc1C#N (centres unmarked)
assayEndpoint: DC50
testResult: ≥ 25 nM

compound: COc1ccc(Cl)c(-c2c(-c3ccc4c(c3)CN(C3CCC(=O)NC3=O)C4=O)ncn2C)c1 (centres unmarked)
assayEndpoint: DC50
testResult: ≥ 25 nM

compound: Cn1cnc(-c2ccc3c(c2)CN(C2CCC(=O)NC2=O)C3=O)c1-c1cccc(C(C)(C)C)c1 (centres unmarked)
assayEndpoint: DC50
testResult: < 25 nM

compound: Cn1ncc(-c2ccc3c(c2)CN(C2CCC(=O)NC2=O)C3=O)c1-c1cccc(F)c1F (centres unmarked)
assayEndpoint: DC50
testResult: ≥ 25 nM

compound: Cn1cnc(-c2ccc3c(c2)CN(C2CCC(=O)NC2=O)C3=O)c1-c1cnc(C#N)nc1 (centres unmarked)
assayEndpoint: DC50
testResult: ≥ 25 nM

compound: Cn1cnc(-c2ccc3c(c2)CN(C2CCC(=O)NC2=O)C3=O)c1-c1cccc2ccccc12 (centres unmarked)
assayEndpoint: DC50
testResult: < 25 nM

compound: CN1CCN(c2ccc(-c3c(-c4ccc5c(c4)CN(C4CCC(=O)NC4=O)C5=O)ncn3C)cc2)CC1 (centres unmarked)
assayEndpoint: DC50
testResult: ≥ 25 nM

compound: Cn1ncc(-c2ccc3c(c2)CN(C2CCC(=O)NC2=O)C3=O)c1-c1ccccc1F (centres unmarked)
assayEndpoint: DC50
testResult: ≥ 25 nM

compound: COc1ccc(-c2c(-c3ccc4c(c3)CN(C3CCC(=O)NC3=O)C4=O)ncn2C)cc1F (centres unmarked)
assayEndpoint: DC50
testResult: < 25 nM

compound: CC(C)Cc1ccc(-c2c(-c3ccc4c(c3)CN(C3CCC(=O)NC3=O)C4=O)ncn2C)cc1 (centres unmarked)
assayEndpoint: DC50
testResult: ≥ 25 nM

compound: Cn1ncc(-c2ccc3c(c2)CN(C2CCC(=O)NC2=O)C3=O)c1-c1ccc(Cl)c(C#N)c1 (centres unmarked)
assayEndpoint: DC50
testResult: ≥ 25 nM

----------
Target: CK1α (Homo sapiens, UniProt P48729+Q96SW2)
Construct: CSNK1A1-HiBit KI HEK293(LgBit) Cells; host or cells: HEK293(LgBit) knock-in cells
Sequence (P48729 whole entry): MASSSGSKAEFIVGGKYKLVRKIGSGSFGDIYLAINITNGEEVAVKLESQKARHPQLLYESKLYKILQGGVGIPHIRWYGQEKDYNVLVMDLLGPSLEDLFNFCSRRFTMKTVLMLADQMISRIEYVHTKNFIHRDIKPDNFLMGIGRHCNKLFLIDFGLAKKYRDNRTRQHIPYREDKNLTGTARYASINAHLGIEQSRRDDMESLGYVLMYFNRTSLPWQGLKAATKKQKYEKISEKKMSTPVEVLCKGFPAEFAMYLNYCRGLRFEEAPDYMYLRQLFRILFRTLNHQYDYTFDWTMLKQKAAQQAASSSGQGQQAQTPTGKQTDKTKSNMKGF
Sequence (Q96SW2 whole entry): as the sequence (Q96SW2 whole entry) above
Sequence (Q16531 whole entry partner): as the sequence (Q16531 whole entry partner) above
Test: HiBiT degradation assay, CK1α, Procedure A
Assay type: cell-based
Settings: six hours

compound: Cn1nc(-c2ccc3c(c2)CN(C2CCC(=O)NC2=O)C3=O)cc1-c1ccc(F)cc1 (centres unmarked) [Example 488]
DC50: < 25 nM

compound: Cn1cc(-c2ccc3c(c2)CN(C2CCC(=O)NC2=O)C3=O)nc1-c1ccc2ccccc2c1 (centres unmarked) [Example 652]
DC50: < 25 nM

compound: Cc1cc(-c2c(-c3ccc4c(c3)CN(C3CCC(=O)NC3=O)C4=O)cnn2C)n(C)n1 (centres unmarked) [Example 454]
DC50: ≥ 25 nM

compound: Cn1cc(-c2ccc3c(c2)CN(C2CCC(=O)NC2=O)C3=O)nc1-c1ccn2ccnc2c1 (centres unmarked) [Example 585]
DC50: ≥ 25 nM

compound: Cn1cc(-c2ccc3c(c2)CN(C2CCC(=O)NC2=O)C3=O)nc1C1(C)CCCCC1 (centres unmarked) [Example 714]
DC50: < 25 nM

compound: O=C1CCC(N2Cc3cc(-c4cn(C(F)F)c(-c5ccccc5)n4)ccc3C2=O)C(=O)N1 (centres unmarked) [Example 421]
DC50: < 25 nM

compound: Cn1nc(-c2ccc3c(c2)CN(C2CCC(=O)NC2=O)C3=O)nc1N1CCC(F)(F)CC1 (centres unmarked) [Example 613]
DC50: < 25 nM

compound: Cn1cnc(-c2ccc3c(c2)CN(C2CCC(=O)NC2=O)C3=O)c1-c1ccc(S(=O)(=O)NC2CCCCC2)cc1 (centres unmarked) [Example 448]
DC50: ≥ 25 nM

compound: Cn1cc(-c2ccc3c(c2)CN(C2CCC(=O)NC2=O)C3=O)nc1-c1cccc(F)c1C#N (centres unmarked) [Example 641]
DC50: < 25 nM

compound: Cn1cnc(-c2ccc3c(c2)CN(C2CCC(=O)NC2=O)C3=O)c1-c1ccc(N)nc1 (centres unmarked) [Example 522]
DC50: ≥ 25 nM

compound: Cn1cc(-c2ccc3c(c2)CN(C2CCC(=O)NC2=O)C3=O)nc1-c1ccc(C#N)cc1 (centres unmarked) [Example 633]
DC50: < 25 nM

compound: Cc1cc(F)ccc1-c1nc(-c2ccc3c(c2)CN(C2CCC(=O)NC2=O)C3=O)cn1C (centres unmarked) [Example 560]
DC50: < 25 nM

compound: Cn1ncc(-c2ccc3c(c2)CN(C2CCC(=O)NC2=O)C3=O)c1-c1ccnnc1 (centres unmarked) [Example 450]
DC50: ≥ 25 nM

compound: Cn1ncc(-c2ccc3c(c2)CN(C2CCC(=O)NC2=O)C3=O)c1-c1ccc2c(c1)ncn2C (centres unmarked) [Example 476]
DC50: ≥ 25 nM

compound: CC(C)n1nc(-c2ccc3c(c2)CN(C2CCC(=O)NC2=O)C3=O)cc1-c1ccccc1 (centres unmarked) [Example 550]
DC50: < 25 nM

compound: Cn1cc(-c2ccc3c(c2)CN(C2CCC(=O)NC2=O)C3=O)nc1C1CCC2(CC1)CC2 (centres unmarked) [Example 534]
DC50: < 25 nM

compound: Cn1ncc(-c2ccc3c(c2)CN(C2CCC(=O)NC2=O)C3=O)c1-c1ccc2cc[nH]c2c1 (centres unmarked) [Example 379]
DC50: < 25 nM

compound: Cn1cnc(-c2ccc3c(c2)CN(C2CCC(=O)NC2=O)C3=O)c1-c1cnn(C(C)(C)C)c1 (centres unmarked) [Example 492]
DC50: ≥ 25 nM

compound: COc1ccc(-c2nc(-c3ccc4c(c3)CN(C3CCC(=O)NC3=O)C4=O)cn2C)cc1Cl (centres unmarked) [Example 584]
DC50: < 25 nM

compound: Cn1cnc(-c2ccc3c(c2)CN(C2CCC(=O)NC2=O)C3=O)c1-c1ccc2nccn2c1 (centres unmarked) [Example 528]
DC50: ≥ 25 nM

compound: Cn1ncc(-c2ccc3c(c2)CN(C2CCC(=O)NC2=O)C3=O)c1C1CCC(F)(F)CC1 (centres unmarked) [Example 699]
DC50: ≥ 25 nM

compound: COc1ccncc1-c1c(-c2ccc3c(c2)CN(C2CCC(=O)NC2=O)C3=O)cnn1C (centres unmarked) [Example 458]
DC50: < 25 nM

compound: CC(C)Cc1nc(-c2ccc3c(c2)CN(C2CCC(=O)NC2=O)C3=O)c(-c2ccccc2)o1 (centres unmarked) [Example 732]
DC50: < 25 nM

----------
Biological target: GSPT1 (Homo sapiens, UniProt P15170+Q96SW2)
Assay: HiBiT degradation assay, GSPT1, Procedure A
Type: cell-based
Parameters: HiBit-GSPT1 KI HEK293(LgBit) Cells; host or cells: HEK293(LgBit) knock-in cells
Conditions: six hours incubation

compound: Cn1ncc(-c2ccc3c(c2)CN(C2CCC(=O)NC2=O)C3=O)c1-c1cc(F)cc(F)c1 (centres unmarked) [Example 178]
testTarget: GSPT1 (Homo sapiens, UniProt P15170+Q96SW2)
DC50: < 25 nM
//
compound: Cn1cnc(-c2ccc3c(c2)CN(C2CCC(=O)NC2=O)C3=O)c1-c1cccc(Cl)c1Cl (centres unmarked)
testTarget: GSPT1 (Homo sapiens, UniProt P15170+Q96SW2)
DC50: ≥ 25 nM
//
compound: Cc1c(-c2c(-c3ccc4c(c3)CN(C3CCC(=O)NC3=O)C4=O)ncn2C)cnn1C (centres unmarked)
testTarget: GSPT1 (Homo sapiens, UniProt P15170+Q96SW2)
DC50: < 25 nM
//
compound: Cn1ncc(-c2ccc3c(c2)CN(C2CCC(=O)NC2=O)C3=O)c1-c1ccc(N2CCOCC2)cc1 (centres unmarked)
testTarget: GSPT1 (Homo sapiens, UniProt P15170+Q96SW2)
DC50: ≥ 25 nM
//
compound: O=C1CCC(N2Cc3cc(-c4nccn4C4CCCCC4)ccc3C2=O)C(=O)N1 (centres unmarked)
testTarget: GSPT1 (Homo sapiens, UniProt P15170+Q96SW2)
DC50: < 25 nM
//
compound: Cn1ncc(-c2ccc3c(c2)CN(C2CCC(=O)NC2=O)C3=O)c1-c1ccc(N2CCCC2)cc1 (centres unmarked)
testTarget: GSPT1 (Homo sapiens, UniProt P15170+Q96SW2)
DC50: ≥ 25 nM
//
compound: Cn1cnc(-c2ccc3c(c2)CN(C2CCC(=O)NC2=O)C3=O)c1-c1cc(Cl)ccc1F (centres unmarked)
testTarget: GSPT1 (Homo sapiens, UniProt P15170+Q96SW2)
DC50: ≥ 25 nM
//
compound: Cn1cnc(-c2ccc3c(c2)CN(C2CCC(=O)NC2=O)C3=O)c1-c1ccccc1 (centres unmarked)
testTarget: GSPT1 (Homo sapiens, UniProt P15170+Q96SW2)
DC50: < 25 nM
//
compound: Cc1ccc(-c2c(-c3ccc4c(c3)CN(C3CCC(=O)NC3=O)C4=O)cnn2C)cc1 (centres unmarked)
testTarget: GSPT1 (Homo sapiens, UniProt P15170+Q96SW2)
DC50: ≥ 25 nM
//
compound: Cn1ncc(-c2ccc3c(c2)CN(C2CCC(=O)NC2=O)C3=O)c1-c1ccccc1 (centres unmarked)
testTarget: GSPT1 (Homo sapiens, UniProt P15170+Q96SW2)
DC50: ≥ 25 nM
//
compound: COc1ccc(-c2c(-c3ccc4c(c3)CN(C3CCC(=O)NC3=O)C4=O)ncn2C)cc1O (centres unmarked)
testTarget: GSPT1 (Homo sapiens, UniProt P15170+Q96SW2)
DC50: < 25 nM
//
compound: Cn1ncc(-c2ccc3c(c2)CN(C2CCC(=O)NC2=O)C3=O)c1-c1ccccc1C1CC1 (centres unmarked)
testTarget: GSPT1 (Homo sapiens, UniProt P15170+Q96SW2)
DC50: ≥ 25 nM
//
compound: Cn1ncc(-c2ccc3c(c2)CN(C2CCC(=O)NC2=O)C3=O)c1-c1ccc(C#N)cc1 (centres unmarked)
testTarget: GSPT1 (Homo sapiens, UniProt P15170+Q96SW2)
DC50: ≥ 25 nM
//
compound: Cn1cnc(-c2ccc3c(c2)CN(C2CCC(=O)NC2=O)C3=O)c1-c1ccc(CO)cc1 (centres unmarked)
testTarget: GSPT1 (Homo sapiens, UniProt P15170+Q96SW2)
DC50: ≥ 25 nM
//
compound: Cc1nocc1-c1c(-c2ccc3c(c2)CN(C2CCC(=O)NC2=O)C3=O)ncn1C (centres unmarked)
testTarget: GSPT1 (Homo sapiens, UniProt P15170+Q96SW2)
DC50: ≥ 25 nM
//
compound: Cc1csc(-c2c(-c3ccc4c(c3)CN(C3CCC(=O)NC3=O)C4=O)ncn2C)c1 (centres unmarked)
testTarget: GSPT1 (Homo sapiens, UniProt P15170+Q96SW2)
DC50: < 25 nM
//
compound: COc1ncccc1-c1c(-c2ccc3c(c2)CN(C2CCC(=O)NC2=O)C3=O)ncn1C (centres unmarked)
testTarget: GSPT1 (Homo sapiens, UniProt P15170+Q96SW2)
DC50: < 25 nM
//
compound: Cn1cnc(-c2ccc3c(c2)CN(C2CCC(=O)NC2=O)C3=O)c1-c1ccc(S(=O)(=O)N2CCCC2)cc1 (centres unmarked)
testTarget: GSPT1 (Homo sapiens, UniProt P15170+Q96SW2)
DC50: < 25 nM
//
compound: CN1Cc2cccc(-c3c(-c4ccc5c(c4)CN(C4CCC(=O)NC4=O)C5=O)ncn3C)c2C1 (centres unmarked)
testTarget: GSPT1 (Homo sapiens, UniProt P15170+Q96SW2)
DC50: < 25 nM
//
compound: Cn1ncc(-c2ccc3c(c2)CN(C2CCC(=O)NC2=O)C3=O)c1-c1ccc(F)cc1Cl (centres unmarked)
testTarget: GSPT1 (Homo sapiens, UniProt P15170+Q96SW2)
DC50: ≥ 25 nM
